// composite z-score lookup, one value per entry
- Test protocol: small-molecule microarray binders of probe aWnt5a, primary screen, biochemical, biotinylated probe, 635/667 nm fluorescence (AID 1113);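 note: score merges 667 nm fluorescence intensity with signal-to-noise per printed feature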
- Condition parameters: higher = more signal
Lab note: write the figure by itself, no unit.

Examples with answers:
IN: Which composite z-score reading was recorded for the compound Cc1ccc(S[C@]2(C(=O)NCc3ccccc3)CC(=O)N(Cc3ccccc3Cl)[C@@H]2c2ccc(CO)cc2I)cc1 ?
OUT: -0.124

IN: Which composite z-score reading was recorded for the compound COC(=O)c1c(CC[C@@H](CO)NC(=O)N[C@@H](Cc2ccccc2)Cn2cc(C3(O)CCCCC3)nn2)oc(C(C)=O)c1C(=O)OC ?
OUT: -0.096

IN: Which composite z-score reading was recorded for the compound C=C[C@H](C)[C@@H](O)c1ccc(O)c2ccccc12 ?
OUT: -0.175

IN: Which composite z-score reading was recorded for the compound Cc1ccc(S[C@]2(C(=O)NCCN3CCOCC3)CC(=O)N(Cc3cc(C(F)(F)F)cc(C(F)(F)F)c3)[C@@H]2c2ccc(CO)cc2I)cc1 ?
OUT: -0.176

IN: Which composite z-score reading was recorded for the compound CC(C)c1ccc(NN2C(C(O)c3c(F)cccc3Cl)C=CC3C(=O)N(c4ccccc4)C(=O)C32)cc1 (configuration not stated) ?
OUT: 0.136

---
IN: Which composite z-score reading was recorded for the compound C=C[C@@H](COC(C)=O)N(Cc1ccc([N+](=O)[O-])cc1)S(=O)(=O)c1ccc(Br)cc1 ?
OUT: -0.0597

IN: Which composite z-score reading was recorded for the compound N#Cc1ccc(NN2C(C(O)C3CCCCC3)C=CC3C(=O)N(c4ccccc4)C(=O)C32)cc1 (configuration not stated) ?
OUT: 0.0859

IN: Which composite z-score reading was recorded for the compound CC(C)CNC(=O)[C@@H]1c2ccccc2C(=O)N(Cc2cc(C(F)(F)F)cc(C(F)(F)F)c2)[C@H]1c1ccc(CO)cc1 ?
OUT: 0.0437

IN: Which composite z-score reading was recorded for the compound COc1ccc([Si](C)(C)[C@@H]2[C@@H](CCn3cc([C@H](O)c4ccccc4)nn3)O[C@]3(C(=O)N(Cc4ccc(N5C(=O)c6cccc7cccc5c67)cc4)c4ccccc43)[C@H]2C)cc1 ?
OUT: -0.154

IN: Which composite z-score reading was recorded for the compound O=C1OCCC=C[C@H]2OC34C=CCN(Cc5ccccc5)C(=O)[C@H]3N(CCCCCCO)C(=O)[C@@H]4C12 (some centres not stated) ?
OUT: -0.343

====

- Test system: Inhibin beta A chain (activin A)
- Test protocol: INHBA (activin A) binders on microarrays, primary screen, biochemical, small-molecule microarray, 635 nm fluorescence scan (AID 1107);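 note: mouse activin A protein probed at 4.33 µg/mL on printed slides; score merges bound-protein fluorescence near 667 nm with spot signal-to-noise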
- Condition parameters: small-molecule microarray binding, higher = more signal
// composite z-score lookup, one value per entry
Lab note: write the figure by itself, no unit.

Examples with answers:
IN: Which composite z-score reading was recorded for the compound CC(C)NC(=O)[C@@H]1c2ccccc2C(=O)N(Cc2ccccc2)[C@H]1c1ccc(CO)cc1 ?
OUT: -0.212

IN: Which composite z-score reading was recorded for the compound CN(C)CCCCCCNC(=O)[C@H]1C[C@H]2C(=O)N[C@@H](CCCCN)C(=O)N2[C@H]1c1ccc(O)cc1 ?
OUT: 1.45

IN: Which composite z-score reading was recorded for the compound COc1ccc(C#Cc2ccc3c(c2)[C@]2(C(=O)N3)[C@H](C(=O)NC[C@H](O)c3ccccc3)[C@H]3C(=O)O[C@H](c4ccccc4)[C@H](c4ccccc4)N3[C@@H]2c2ccccc2OCCO)cc1 ?
OUT: -0.0953

IN: Which composite z-score reading was recorded for the compound O=c1oc(-c2ccccc2)nc2cc(Br)ccc12 ?
OUT: -0.0295

---
IN: Which composite z-score reading was recorded for the compound O=C1C2C=CC(C(O)c3ccc(-c4ccccc4)s3)N(n3cnnc3)C2C(=O)N1Cc1ccccc1 (stereo not given) ?
OUT: 0.631

IN: Which composite z-score reading was recorded for the compound CCCCC(CC)C(O)C1C=CC2C(=O)N(c3ccccc3)C(=O)C2N1Nc1ccccc1 (stereo not given) ?
OUT: 1.02

IN: Which composite z-score reading was recorded for the compound CCOC(=O)C[C@H]1[C@H](OC(=O)Cc2ccc3c(c2)OCO3)[C@@H](NC(=O)c2ccc(-c3ccccc3)cc2)c2cc(OCCCO)ccc2N1C(=O)c1ccccc1 ?
OUT: 0.235

IN: Which composite z-score reading was recorded for the compound C=CC[C@@]1(C(=O)O)N=C(c2ccc(OCCCO)cc2)O[C@@H]1c1ccccc1N=[N+]=[N-] ?
OUT: 1.46

IN: Which composite z-score reading was recorded for the compound [N-]=[N+]=NCc1ccccc1[C@@H]1OC(c2ccc(OCCCO)cc2)=N[C@]1(Cc1ccccc1)C(=O)N1CCCCC1 ?
OUT: 0.407
